Biological target: Rac-1 (Homo sapiens, UniProt P63000)
Construct: made in house
Assay: Ras GTP Binding Domain Inhibition Assay (Ras Superfamily Assay)
Conditions: read-out: Rac-1: % inh.
Quantity measured: inhibition at 20 µM

Illustrative cases are given below, each with its answer.
INSERT INTO assay_data (molecule, observed_result) VALUES
  ('CO[C@H]1C[C@H](Nc2nc(-c3nccn3C)nn3cc(-c4ccc(CN)cc4)c(-c4ccccc4)c23)C1.Cl [Compound 206, hydrochloride salt]', '1 to 25%'),
  ('COc1cccc(-c2cn3nc(-c4nccn4C)nc(O)c3c2C)c1Cl', '0%'),
  ('Cc1c(-c2ccn(C)n2)cn2nc(-c3nccn3C)nc(Nc3n[nH]c(C4CC4)n3)c12', '76 to 100%'),
  ('Cc1c(-c2ccn(C)n2)cn2nc(-c3nccn3C)nc(Nc3ncccn3)c12.Cl [Compound 115, hydrochloride salt]', '1 to 25%'),
  ('Cc1c(-c2ccn(C)n2)cn2nc(-c3nccn3C)nc(Nc3cc(C4CC4)[nH]n3)c12', '76 to 100%');

*Q* # input molecule: Cc1c(-c2ccn(C(C)C)n2)cn2nc(-c3nccn3C)nc(Nc3nnco3)c12 ; wanted: its inhibition at 20 µM
*A* 76 to 100%

*Q* Reported inhibition at 20 µM for Cc1c(-c2ccn(C)n2)cn2nc(-c3nccn3C)nc(Nc3ccc(-c4ccccn4)cn3)c12 : what is it?
*A* 76 to 100%
